# maps each entry to its EC50
- system-under-test: AMPK
- experiment-description: AMPK activation, enzyme-linked immunosorbent assay
- Assay type: biochemical
- recorded-conditions: EC50 for AMPK activation, ELISA

Query: Entry "COc1ccc(C(=O)C2CCN(C(=O)c3ccc(C(=O)NCCOc4ccc(F)cc4)nc3)CC2)cc1" , system AMPK: what EC50 was measured?
Result: < 0.5 µM

Query: What EC50 appears in the records for this molecule with AMPK? "COc1ccc(OC2CCN(C(=O)c3ccc(C(=O)NC4CCN(Cc5ccc(C#N)cc5)CC4)cn3)CC2)c(NS(C)(=O)=O)c1"
Result: 1 to 5 µM

Query: Query for AMPK: what EC50 does the record show for "N#Cc1ccc(CN2CCC(NC(=O)c3ccc(C(=O)N4CCN(S(=O)(=O)c5ccccc5)CC4)cn3)CC2)cc1" ?
Result: 0.5 to 1 µM

Query: Kindly state the measured EC50 obtained for "CN(C)C(=O)c1ccc(Oc2ccc(NC(=O)c3ccc(C(=O)N4CCC(C(=O)c5ccc(F)cc5F)CC4)nc3)cn2)cc1" with AMPK.
Result: < 0.5 µM

Query: Can you look up EC50 on AMPK for N#Cc1ccc(CN2CCC(NC(=O)c3ccc(C(=O)N4CC[C@H](Oc5ccc(C#N)cc5)[C@@H](F)C4)cn3)CC2)cc1 (relative stereo) ?
Result: < 0.5 µM

Query: Recorded EC50 for "CS(=O)(=O)c1ccc(C(=O)C2CCN(C(=O)c3ccc(C(=O)NC4CCN(Cc5ccc(F)cc5)CC4)nc3)CC2)cc1" with AMPK, please?
Result: < 0.5 µM

###

# key: entry, value: EC50
- system-under-test: AMPK
- experiment-description: AMPK activation, enzyme-linked immunosorbent assay
- recorded-conditions: EC50 for AMPK activation, ELISA

>  <compound>
N#Cc1ccc(CN2CCC(NC(=O)c3ccc(C(=O)N4CCC(Oc5ccc(S(=O)(=O)C6CC6)cc5)CC4)nc3)CC2)cc1 [Compound 246]

>  <EC50>
< 500 nM

$$$$
>  <compound>
N#Cc1ccc(OC2CCN(C(=O)c3ccc(C(=O)NC4CCNCC4)cn3)CC2)cc1 [Compound 335]

>  <EC50>
> 10000 nM

$$$$
>  <compound>
CC(=O)c1ccc(Oc2ccc(NC(=O)c3ccc(C(=O)N4CCC(Oc5ccc(C(=O)N(C)C)cc5)CC4)nc3)cn2)cc1 [Compound 488]

>  <EC50>
< 500 nM

$$$$
>  <compound>
N#Cc1ccc(CN2CCC(NC(=O)c3ccc(C(=O)N4CCC(C(=O)c5ccc(Cl)cc5)CC4)cn3)CC2)cc1 [Compound 154]

>  <EC50>
< 500 nM

$$$$
>  <compound>
N#Cc1ccc(O[C@H]2CC[C@@H](NC(=O)c3ccc(C(=O)N4CCN(Cc5ccc(F)cc5)CC4)cn3)CC2)cc1 [Compound 150]

>  <EC50>
< 500 nM

$$$$
>  <compound>
O=C(c1cccc(C(=O)N2CCN(c3ccccc3)CC2)n1)N1CCN(Cc2ccc(F)cc2)CC1 [Compound 94]

>  <EC50>
> 10000 nM

$$$$

Please examine the following record next.
Query: For N#Cc1ccc(CN2CCC(NC(=O)c3ccc(C(=O)N4CCN(C(=O)c5ccc(F)cc5)CC4)cn3)CC2)cc1 [Compound 76] , what is its reported EC50?
Result: < 500 nM

###

Attribute: EC50
- system-under-test: AMPK
- experiment-description: AMPK activation, enzyme-linked immunosorbent assay
- recorded-conditions: EC50 for AMPK activation, ELISA

>  <molecule>
COc1ccc(C(=O)C2CCN(C(=O)c3ccc(C(=O)NC4CCN(Cc5ccc(N)cc5)CC4)cn3)CC2)cc1

>  <EC50>
1000 to 5000 nM

$$$$
>  <molecule>
O=C(NC1CCN(C(=O)c2ccccc2)CC1)c1ccc(C(=O)N2CCN(Cc3ccc(F)cc3)CC2)cn1

>  <EC50>
< 500 nM

$$$$
>  <molecule>
CS(=O)(=O)c1ccc(C(=O)C2CCN(C(=O)c3ccc(C(=O)N[C@@H]4CCN(Cc5ccc(OC(F)(F)F)cc5)C[C@H]4F)nc3)CC2)cc1 (relative stereo)

>  <EC50>
500 to 1000 nM

$$$$

Query: Which EC50 is reported for this molecule? "CS(=O)(=O)c1ccc(OC2CCN(C(=O)c3ccc(C(=O)NC4CCN(Cc5cccc(OC(F)(F)F)c5)CC4)nc3)CC2)cc1"
Result: < 500 nM

Query: Data request, read-out EC50, for "CS(=O)(=O)c1ccc(OC2CCN(C(=O)c3ccc(C(=O)Nc4ccc(Oc5ccc(F)cc5)nc4)nc3)CC2)cc1"
Result: < 500 nM

###

- system-under-test: AMPK
- experiment-description: AMPK activation, enzyme-linked immunosorbent assay
- recorded-conditions: EC50 for AMPK activation, ELISA
pEC50: −log10 of the molar value.
measure: pEC50

In the examples that follow, each entry is paired with its recorded pEC50.
>  <compound>
COc1ccc(C(=O)C2CCN(c3ccc(C(=O)N4CCN(Cc5ccc(F)cc5)CC4)cn3)CC2)cc1 [Compound 189]

>  <pEC50>
5.30 to 6.00

$$$$
>  <compound>
O=C(NC1CCN(c2ccc(F)cc2)CC1)c1ccc(C(=O)N2CCN(Cc3ccc(F)cc3)CC2)nc1 [Compound 404]

>  <pEC50>
5.30 to 6.00

$$$$
>  <compound>
O=C(NC1CCN(Cc2ccccc2)CC1)c1ccc(C(=O)N2CCN(Cc3ccccc3)CC2)cn1 [Compound 72]

>  <pEC50>
> 6.30

$$$$

Query: May I ask what pEC50 has been recorded for N#Cc1ccc(CN2CCC(NC(=O)c3ccc(C(=O)N4CCC(Oc5ccc(F)c(F)c5)CC4)cn3)CC2)cc1 [Compound 158] ?
Result: > 6.30

Query: Looking for the measured pEC50 of O=C(Nc1cccc(-c2ccccc2)c1)c1ccc(C(=O)N2CCN(Cc3ccc(F)cc3)CC2)cn1 [Compound 12] , can you help?
Result: 5.00 to 5.30

Query: I have this compound here, COc1ccc(C(=O)C2CCN(C(=O)c3ccc(C(=O)NC4CCN(Cc5ccc(C#N)cc5)CC4)cn3)CC2)cc1 [Compound 309] , and I need its recorded pEC50.
Result: > 6.30

Query: Item COc1ccc(C(=O)C2CCN(C(=O)c3cnc(C(=O)NC4CCN(Cc5ccc(C#N)cc5)CC4)cn3)CC2)cc1 [Compound 211] has what recorded pEC50?
Result: > 6.30

###

Reported EC50 values for the following compounds.
- system-under-test: AMPK
- experiment-description: AMPK activation, enzyme-linked immunosorbent assay
- recorded-conditions: EC50 for AMPK activation, ELISA

Worked cases, answers included:
>  <query-smiles>
N#Cc1ccc(OC2CCN(C(=O)c3ccc(C(=O)NC4CCN(Cc5nccs5)CC4)cn3)CC2)cc1

>  <measure>
EC50

>  <result>
< 500 nM

$$$$
>  <query-smiles>
N#Cc1ccc(CN2CCC(NC(=O)c3ccc(C(=O)N4CCC(Oc5ccc(F)cc5F)CC4)cn3)CC2)cc1

>  <measure>
EC50

>  <result>
< 500 nM

$$$$
>  <query-smiles>
CS(=O)(=O)c1ccc(OC2CCN(C(=O)c3cnc(C(=O)Nc4ccc(Oc5ccc(F)cc5)nc4)cn3)CC2)cc1

>  <measure>
EC50

>  <result>
< 500 nM

$$$$

Query: // query EC50 value for entry "CN1CCN(c2ccc(C(=O)C3CCN(C(=O)c4ccc(C(=O)NC5CCN(Cc6ccc(OC(F)(F)F)cc6)CC5)cn4)CC3)cc2)CC1"
Result: 5000 to 10000 nM

###

Catalogue of EC50 readings, one per entry.
- system-under-test: AMPK
- experiment-description: AMPK activation, enzyme-linked immunosorbent assay
- recorded-conditions: EC50 for AMPK activation, ELISA

>  <query-smiles>
N#Cc1ccc(OC2CCN(C(=O)c3ccc(C(=O)NC4CCN(Cc5cc(F)cc(F)c5)CC4)cn3)CC2)cc1

>  <EC50>
< 0.5 µM

$$$$

Query: Suppose we examine the molecule "O=C(NC1CCN(Cc2cc(F)cc(F)c2)CC1)c1ccc(C(=O)N2CCC(C(=O)c3ccc(F)c(F)c3)CC2)cn1" ; what EC50 value has been reported?
Result: < 0.5 µM

Query: Would you kindly share the measured EC50 for "N#Cc1ccc(CN2CC[C@@H](NC(=O)c3ccc(C(=O)N4CCN(Cc5ccc(F)cc5)CC4)cn3)C2)cc1" ?
Result: < 0.5 µM

###

Entries and their EC50 values follow.
- system-under-test: AMPK
- experiment-description: AMPK activation, enzyme-linked immunosorbent assay
- recorded-conditions: EC50 for AMPK activation, ELISA

Query: Name the reported EC50 value associated with the compound "CS(=O)(=O)c1ccc(CN2CCC(NC(=O)c3ccc(C(=O)N4CCC(C(=O)c5ccc(F)cc5F)CC4)nc3)CC2)cc1"
Result: < 0.5 µM

Query: What value of measured EC50 is listed for "O=C(NC1CCN(Cc2ccc(OC(F)(F)F)cc2)CC1)c1ccc(C(=O)N2CCC(Oc3cccc(NC(=O)C4CC4)c3)CC2)nc1" ?
Result: < 0.5 µM

Query: So what does the record say about EC50 for "COc1ccc(OC2CCN(C(=O)c3ccc(C(=O)NC4CCN(Cc5ccc(C#N)cc5)CC4)cn3)CC2)c([N+](=O)[O-])c1" ?
Result: < 0.5 µM

Query: Return reported EC50; argument: "COc1ccc(C(=O)C2CCN(C(=O)c3ccc(C(=O)NC4CCN(Cc5ccc(C#N)cc5)CC4)nc3)CC2)cc1"
Result: < 0.5 µM

Query: Can you share its EC50? I mean this compound: "O=C(c1ccc(C(=O)N2CCN(CCc3ccccc3)CC2)nc1)N1CCN(CCc2ccccc2)CC1"
Result: > 10 µM

Query: Query (compound): "COc1ccc(CN2CCC(NC(=O)c3ccc(C(=O)N4CCC(C(=O)c5ccc(F)cc5F)CC4)nc3)CC2)cc1" ; field requested: EC50
Result: < 0.5 µM

Query: Using the record for "CS(=O)(=O)c1ccc(OC2CCN(C(=O)c3ccc(C(=O)NC4CCN(Cc5ccc(F)cc5)CC4)nc3)CC2)cc1" , report its EC50.
Result: < 0.5 µM

Query: Reported EC50 for "N#Cc1ccc(CN2CCC3(CC2)CCN(c2ccc(C(=O)N4CCN(Cc5ccc(F)cc5)CC4)cn2)C3)cc1" : what is it?
Result: < 0.5 µM

Query: # query: EC50 of entry "N#Cc1ccc(O[C@H]2CC[C@@H](NC(=O)c3ccc(C(=O)N4CCN(Cc5ccc(F)cc5)CC4)nc3)CC2)cc1"
Result: < 0.5 µM

Query: // lookup EC50 for "N#Cc1ccc(CN2CCC(NC(=O)c3ccc(C(=O)N4CCC(Oc5ccc(C#N)cc5)CC4)nc3)CC2)cc1"
Result: < 0.5 µM

Query: Requested field: EC50. Item: "COc1cccc(CN2CCC(NC(=O)c3ccc(C(=O)N4CCC(S(=O)(=O)c5ccc(F)cc5)CC4)nc3)CC2)c1"
Result: 1 to 5 µM

Query: Which EC50 reading was recorded for the compound "O=C(c1ccc(Nc2ccc(Oc3ccccc3)cc2)nc1)N1CCN(Cc2ccc(F)cc2)CC1" ?
Result: 1 to 5 µM

Query: // EC50 lookup, key: CS(=O)(=O)c1ccc(OC2CCN(C(=O)c3ccc(C(=O)N[C@@H]4CCN(Cc5ccc(C#N)cc5)C[C@H]4F)nc3)CC2)cc1 (relative stereo)
Result: < 0.5 µM

Query: Recorded EC50 for COc1ccc(C(=O)C2CCN(C(=O)c3ccc(C(=O)N[C@@H]4CCN(Cc5ccc(OC(F)(F)F)cc5)C[C@H]4F)cn3)CC2)cc1 (relative stereo) , please?
Result: < 0.5 µM

Query: Field request: EC50 | item: N#Cc1ccc(CN2CCC(NC(=O)c3ccc(C(=O)N4CCC(C(O)c5ccc(F)cc5)CC4)cn3)CC2)cc1 (centres unmarked)
Result: < 0.5 µM
